Tgt: T1, recombinant human ASM protein (human, UniProt P17405 47-630)
T1 construct: Recombinant human ASM in solution; also called acid sphingomyelinase (ASM) protein
T1 sequence: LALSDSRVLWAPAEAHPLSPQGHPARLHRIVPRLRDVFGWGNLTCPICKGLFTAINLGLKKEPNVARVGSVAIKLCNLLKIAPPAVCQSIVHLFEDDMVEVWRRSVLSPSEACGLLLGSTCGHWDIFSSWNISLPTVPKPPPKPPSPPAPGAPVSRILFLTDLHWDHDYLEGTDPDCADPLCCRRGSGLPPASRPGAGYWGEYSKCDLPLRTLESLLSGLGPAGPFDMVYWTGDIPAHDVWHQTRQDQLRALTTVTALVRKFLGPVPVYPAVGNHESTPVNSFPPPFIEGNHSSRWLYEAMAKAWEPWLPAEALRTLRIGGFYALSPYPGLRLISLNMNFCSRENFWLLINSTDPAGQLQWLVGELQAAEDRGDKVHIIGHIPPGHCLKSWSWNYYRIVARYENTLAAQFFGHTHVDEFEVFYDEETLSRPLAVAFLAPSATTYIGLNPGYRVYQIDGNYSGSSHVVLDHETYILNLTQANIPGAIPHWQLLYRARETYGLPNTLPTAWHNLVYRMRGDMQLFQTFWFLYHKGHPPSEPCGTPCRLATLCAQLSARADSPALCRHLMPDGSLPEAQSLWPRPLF
Experimental Details: BLI (Octet), antibody on AHC sensor
Method: The binding affinity, to the ASM protein, of the produced antibodies specifically binding to the ASM protein and the interactive dynamics therebetween were measured using an Octet® QK384 system (Pall Life Sciences). First, an antibody specifically binding to the ASM protein produced in Example 1 was captured using an anti-human IgG Fc capture (AHC) biosensor, and 1.25, 2.5, 5, 10, or 20 nM recombinant human ASM protein solution was added thereto. […]
Assay Endpoint: pKd
Answer as the number alone; pKd is minus log10 of concentration in mol/L.

Qu. I have this binder here, #9104 (antibody, V domains shown, Parental antibody; also called antibody #9104) VH: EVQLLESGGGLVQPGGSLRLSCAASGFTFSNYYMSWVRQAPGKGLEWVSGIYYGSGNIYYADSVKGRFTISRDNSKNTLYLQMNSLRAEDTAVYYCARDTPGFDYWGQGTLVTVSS VL: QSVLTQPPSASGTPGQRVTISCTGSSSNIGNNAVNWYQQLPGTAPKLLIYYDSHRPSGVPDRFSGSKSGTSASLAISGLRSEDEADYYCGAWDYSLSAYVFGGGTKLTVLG , and I need its recorded pKd.
Ans. 8.66

Qu. Also need #9104a-A7 (antibody, human IgG4 S228P, lambda, V domains shown, VH of #9104v-H31 with VL of #9104v-L20; full-length IgG, lambda) VH: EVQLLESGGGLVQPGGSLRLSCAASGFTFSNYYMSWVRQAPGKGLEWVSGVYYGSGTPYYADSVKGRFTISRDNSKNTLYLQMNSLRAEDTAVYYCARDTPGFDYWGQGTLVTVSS VL: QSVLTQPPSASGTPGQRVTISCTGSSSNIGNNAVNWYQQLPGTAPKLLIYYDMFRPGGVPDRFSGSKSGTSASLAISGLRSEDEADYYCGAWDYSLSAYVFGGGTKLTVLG , thanks.
Ans. 10.45
